# SYSTEM_NAME: α-chymotrypsin (bovine pancreatic) (Bos taurus)
# Construct: native enzyme from bovine pancreas, commercial, used as received
# EXPERIMENT_NOTES: biochemical
# Design: alpha-chymotrypsin inhibition, SAAPFpNA (100 uM) hydrolysis, absorbance at 410 nm, 25 °C, pH 7.8
QUANTITY_KIND: IC50 (µM)

COMPOUND	MEASURE_UNIT	REPORTED_RESULT
O=C(NC1CCCCC1)C(c1ccccc1)N(C(=O)CCl)c1ccc2ccc3cccc4ccc1c2c34 (centres unmarked)	µM	4.5
CC(C)=CCCC(C)CC(C(=O)NC1CCCCC1)N(Cc1ccccc1)C(=O)CC[C@@H](C)[C@H]1CC[C@H]2[C@@H]3[C@@H](O)C[C@@H]4C[C@H](O)CC[C@]4(C)[C@H]3CC[C@]12C (some centres unmarked)	µM	9.2

* * *

Documented IC50 across a set of compounds
# SYSTEM_NAME: α-chymotrypsin (bovine pancreatic) (Bos taurus)
# Construct: native enzyme from bovine pancreas, commercial, used as received
# EXPERIMENT_NOTES: chromogenic protease inhibition assay, absorbance at […] nm
# Assay type: biochemical

COMPOUND	IC50 / µM
CCCCCC[C@@H](O)C/C=C\CCCCCCCC(=O)N(Cc1ccccc1)C(C(=O)NC1CCCCC1)c1ccccc1 (some centres unmarked)	7.9
CCCCCC[C@@H](O)C/C=C\CCCCCCCC(=O)O[C@@H](C/C=C\CCCCCCCC(=O)N(Cc1ccccc1)C(CC(C)CCC=C(C)C)C(=O)NC1CCCCC1)CCCCCC (some centres unmarked)	13.4
CCCCCC[C@@H](O)C/C=C\CCCCCCCC(=O)N(Cc1ccccc1)C(CC(C)CCC=C(C)C)C(=O)NC1CCCCC1 (some centres unmarked)	7.3
CCCCCC[C@@H](O)C/C=C\CCCCCCCC(=O)N(Cc1ccccc1)C(C)(CC[C@@H]1[C@H]2CC(=C(C)C)C(=O)C[C@@]12C)C(=O)NC1CCCCC1 (mixture of isomers)	7.7
CC(C)=C1C[C@@H]2[C@@H](CCC(C)(C(=O)NC3CCCCC3)N(C(=O)CCl)c3ccc4ccc5cccc6ccc3c4c56)[C@]2(C)CC1=O (some centres unmarked)	3.1

* * *

# SYSTEM_NAME: α-chymotrypsin (bovine pancreatic) (Bos taurus)
# Construct: native enzyme from bovine pancreas, commercial, used as received
# EXPERIMENT_NOTES: biochemical
# Set-up: alpha-chymotrypsin inhibition, SAAPFpNA (100 uM) hydrolysis, absorbance at 410 nm, 25 °C, pH 7.8
# CONDITION_SET: read-out: % Inhibition (10 μM)
Each entry gets 0 (no) if its inhibition at 10 µM stays under 7%, and 1 (yes) if its inhibition at 10 µM is 7% or above.

COMPOUND	SYSTEM_NAME	CLASS_LABEL
[C-]#[N+]CS(=O)(=O)c1ccc(C)cc1	α-chymotrypsin (bovine pancreatic) (Bos taurus)	0 (no)
CC(=O)CC[C@@H]1[C@H]2CC(=C(C)C)C(=O)C[C@@]12C	α-chymotrypsin (bovine pancreatic) (Bos taurus)	1 (yes)
Nc1ccc2ccc3cccc4ccc1c2c34	α-chymotrypsin (bovine pancreatic) (Bos taurus)	0 (no)
CCCCCC[C@@H](O)C/C=C\CCCCCCCC(=O)O [(R)-Ricinoleic acid]	α-chymotrypsin (bovine pancreatic) (Bos taurus)	0 (no)
